System: U2OS
EXPERIMENTAL DETAILS: Multiplex assay against U2OS
Format: toxicity, cell-based
EXPERIMENTAL CONTEXT: human, 24 h, 1 µM, compound concentration 1 uM, replicate 1
MEASURED METRIC: Population Membrane Permeable-Phenotype (%)
Numbers only, in %.

COMPOUND: CCOC(=O)CCNc1cc(N2CCc3ccccc3CC2)nc(-c2ccccn2)n1
RECORDED MEASUREMENT: 11

COMPOUND: CC(Cc1ccc(O)c(O)c1)C(C)Cc1ccc(O)c(O)c1 (configuration not stated) [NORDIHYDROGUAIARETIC ACID]
RECORDED MEASUREMENT: 4

COMPOUND: CC(/C=C1\SC(=S)N(CCCC(=O)Nc2ccc(C(=O)O)c(O)c2)C1=O)=C\c1ccccc1
RECORDED MEASUREMENT: 5

COMPOUND: Cc1c(Nc2ccc(S(=O)(=O)N3CCN(C)CC3)cc2F)nc2ccc(-c3cnn(C4CC4)c3)cn2c1=O
RECORDED MEASUREMENT: 7

COMPOUND: CN(c1cc(C(F)(F)F)nc(OCCC(=O)O)n1)c1cccc2c1CCC2
RECORDED MEASUREMENT: 6

Quick one: give me Population Membrane Permeable-Phenotype (%) for each item below, same order please.
1. Cl.NC[C@@H]1O[C@H](C23CC4CC(CC(C4)C2)C3)Cc2c1ccc(O)c2O
2. C[C@@H](Oc1cc(-n2cnc3ccc(CN4CCN(C)CC4)cc32)sc1C(N)=O)c1ccccc1C(F)(F)F [GSK-461364]
3. CCCCCNC(=N)N/N=C/c1c[nH]c2ccc(OC)cc12.O=C(O)/C=C\C(=O)O [TEGASEROD MALEATE]

Solution:
1: 2; 2: 8; 3: 6

Quick one: give me Population Membrane Permeable-Phenotype (%) for each item below, same order please.
1. CC(C)[C@H](CO)Nc1nc(Nc2cccc(Cl)c2)c2ncn(C(C)C)c2n1 [PURVALANOLA]
2. CCCc1cc(C)[nH]c(=O)c1CNC(=O)c1cc(-c2ccc(N3CCN(C(C)C)CC3)nc2)cc2c1cnn2C(C)C
3. CC[C@@H]1C(=O)N(C)c2cnc(Nc3ccc(C(=O)NC4CCN(C)CC4)cc3OC)nc2N1C1CCCC1 [BI-2536]
4. CCOc1ccn(-c2ccc(F)cc2)c(=O)c1C(=O)Nc1ccc(Oc2ccnc(N)c2Cl)c(F)c1 [BMS-777607]
5. Cl.Cn1c2c(c3ccc(Cl)c(Cl)c31)C(C#N)C1(CCNCC1)NC2=O (configuration not stated)
6. CC(C)c1cc(Nc2nc(N3CCC[C@H](N)C3)ncc2C(N)=O)cc(C(C)C)n1
7. Cc1ccc(S(=O)(=O)NC2c3ccccc3Oc3ccccc32)cc1
8. CN1C(=O)[C@@H](NC(=O)c2cc3ccccc3[nH]2)N=C(c2ccccc2)c2ccccc21 [DEVAZEPIDE]

Solution:
3
20
20
37
5
22
11
1

Problem: Data request, read-out Population Membrane Permeable-Phenotype (%), for Cc1c(Nc2ccc(S(=O)(=O)N3CCN(C)CC3)cc2F)nc2ccc(Nc3cnn(C4CC4)c3)cn2c1=O
Solution: 37

----------
System: U2OS
EXPERIMENTAL DETAILS: Multiplex assay against U2OS
Type: toxicity, cell-based
EXPERIMENTAL CONTEXT: human, 12 h, 1 µM, compound concentration 1 uM, replicate 1
So I've got a bunch of compounds here, and I need their Population Hoechst High Intensity Objects (%) values.
Numbers only, in %.

COMPOUND: CC(Cc1ccc(O)c(O)c1)C(C)Cc1ccc(O)c(O)c1 (stereo not drawn) [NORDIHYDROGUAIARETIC ACID]
RECORDED MEASUREMENT: 8
--
COMPOUND: Cc1c(Nc2ccc(S(=O)(=O)N3CCN(C)CC3)cc2F)nc2ccc(Nc3cnn(C4CC4)c3)cn2c1=O
RECORDED MEASUREMENT: 3
--
COMPOUND: Cc1ccc(NC(=O)Nc2cc(C(F)(F)F)ccc2F)cc1Nc1ccc2c(c1)NC(=O)/C2=C\c1ccc[nH]1
RECORDED MEASUREMENT: 2
--
COMPOUND: CCOc1ccn(-c2ccc(F)cc2)c(=O)c1C(=O)Nc1ccc(Oc2ccnc(N)c2Cl)c(F)c1 [BMS-777607]
RECORDED MEASUREMENT: 4
--
COMPOUND: CN(c1cc(C(F)(F)F)nc(OCCC(=O)O)n1)c1cccc2c1CCC2
RECORDED MEASUREMENT: 11

Quick one: give me Population Hoechst High Intensity Objects (%) for each item below, same order please.
1. CC(C)c1cc(Nc2nc(N3CCC[C@H](N)C3)ncc2C(N)=O)cc(C(C)C)n1
2. CN1C(=O)[C@@H](NC(=O)c2cc3ccccc3[nH]2)N=C(c2ccccc2)c2ccccc21 [DEVAZEPIDE]
3. Cc1c(Nc2ccc(S(=O)(=O)N3CCN(C)CC3)cc2F)nc2ccc(-c3cnn(C4CC4)c3)cn2c1=O

Solution:
5
7
2

Quick one: give me Population Hoechst High Intensity Objects (%) for each item below, same order please.
1. CC(C)[C@H](CO)Nc1nc(Nc2cccc(Cl)c2)c2ncn(C(C)C)c2n1 [PURVALANOLA]
2. Oc1cccc(-c2nc(N3CCOCC3)c3oc4ncccc4c3n2)c1 [PI-103]
3. Cl.Cn1c2c(c3ccc(Cl)c(Cl)c31)C(C#N)C1(CCNCC1)NC2=O (stereo not drawn)
4. Cc1c(P(=S)(c2ccccc2)c2ccccc2)n2ccccc2[n+]1C/C=C/c1ccccc1.[Br-]

Solution:
[12, 11, 1, 5]

Quick one: give me Population Hoechst High Intensity Objects (%) for each item below, same order please.
1. CC[C@@H]1C(=O)N(C)c2cnc(Nc3ccc(C(=O)NC4CCN(C)CC4)cc3OC)nc2N1C1CCCC1 [BI-2536]
2. CCOC(=O)CCNc1cc(N2CCc3ccccc3CC2)nc(-c2ccccn2)n1
3. C=CC(=O)Nc1cc(-n2c(=O)ccc3cnc4ccc(-c5ccc(NS(C)(=O)=O)cc5)cc4c32)ccc1C
4. Cl.NC[C@@H]1O[C@H](C23CC4CC(CC(C4)C2)C3)Cc2c1ccc(O)c2O
5. CC[C@H](Nc1ncnc2[nH]cnc12)c1nc2cccc(F)c2c(=O)n1-c1ccccc1 [IDELALISIB]
6. N#Cc1cccc(C(=O)Nc2cc(-c3ccccc3)nn2-c2ccccc2)c1

Solution:
[1, 3, 3, 7, 3, 9]

----------
So I've got a bunch of compounds here, and I need their Total Cell Count values.
Test system: HEK-293T
EXPERIMENTAL DETAILS: Multiplex assay against HEK293T
Assay type: toxicity, cell-based
EXPERIMENTAL CONTEXT: human, 24 h, 1 µM, compound concentration 1 uM, replicate 2

Completed entries (count: 6):
COMPOUND: N#Cc1cccc(C(=O)Nc2cc(-c3ccccc3)nn2-c2ccccc2)c1
SYSTEM: HEK-293T
Total Cell Count: 200
//
COMPOUND: Cc1ccc(S(=O)(=O)NC2c3ccccc3Oc3ccccc32)cc1
SYSTEM: HEK-293T
Total Cell Count: 239
//
COMPOUND: CCCCN(CC)c1nc(C)nc2c1c(C)cn2-c1c(C)cc(C)cc1C.Cl
SYSTEM: HEK-293T
Total Cell Count: 308
//
COMPOUND: CC(/C=C1\SC(=S)N(CCCC(=O)Nc2ccc(C(=O)O)c(O)c2)C1=O)=C\c1ccccc1
SYSTEM: HEK-293T
Total Cell Count: 315
//
COMPOUND: Oc1cccc(-c2nc(N3CCOCC3)c3oc4ncccc4c3n2)c1
SYSTEM: HEK-293T
Total Cell Count: 168
//
COMPOUND: CCCCCNC(=N)N/N=C/c1c[nH]c2ccc(OC)cc12.O=C(O)/C=C\C(=O)O [TEGASEROD MALEATE]
SYSTEM: HEK-293T
Total Cell Count: 260

Quick one: give me Total Cell Count for each item below, same order please.
1. CC(C)c1cc(Nc2nc(N3CCC[C@H](N)C3)ncc2C(N)=O)cc(C(C)C)n1
2. Cl.NC[C@@H]1O[C@H](C23CC4CC(CC(C4)C2)C3)Cc2c1ccc(O)c2O
3. C=CC(=O)Nc1cc(-n2c(=O)ccc3cnc4ccc(-c5ccc(NS(C)(=O)=O)cc5)cc4c32)ccc1C
4. Cc1c(Nc2ccc(S(=O)(=O)N3CCN(C)CC3)cc2F)nc2ccc(-c3cnn(C4CC4)c3)cn2c1=O

Solution:
170
310
199
3127

----------
Test system: HEK-293T
EXPERIMENTAL DETAILS: Multiplex assay against HEK293T
Format: toxicity, cell-based
EXPERIMENTAL CONTEXT: human, 12 h, 10 µM, compound concentration 10 uM, replicate 1
So I've got a bunch of molecules here, and I need their Population Apoptotic (%) values.
Answers are plain numbers, in %.

Completed entries (count: 3):
MOLECULE: Cl.Cn1c2c(c3ccc(Cl)c(Cl)c31)C(C#N)C1(CCNCC1)NC2=O (centres undefined)
SYSTEM: HEK-293T
UNIT STRING: %
RECORDED MEASUREMENT: 24
--
MOLECULE: CC(C)C[C@H](NC(=O)[C@H](Cc1ccccc1)NC(=O)CNC(=O)CNC(=O)[C@@H](N)Cc1ccc(O)cc1)C(=O)O [ENKEPHALIN]
SYSTEM: HEK-293T
UNIT STRING: %
RECORDED MEASUREMENT: 40
--
MOLECULE: CCOC(=O)CCNc1cc(N2CCc3ccccc3CC2)nc(-c2ccccn2)n1
SYSTEM: HEK-293T
UNIT STRING: %
RECORDED MEASUREMENT: 22

For the next question, use this molecule.
Problem: API: value(readout=Population Apoptotic (%), system=HEK-293T) for record CC[C@@]1(O)C(=O)OCc2c1cc1n(c2=O)Cc2cc3ccccc3nc2-1 [CAMPTOTHECIN]
Solution: 16
